Reference source for all entries: patent US20070104644A1

System: ApoE −/− mice, carotid artery
Assay: Biodistribution in ApoE ligation model of atherosclerosis (ligated and sham)
Format: in vivo
Conditions: ApoE Ligated, 60 min post injection
From the text: ApoE −/− mice are transgenic knock-out mice, which lack the ApoE gene, and are therefore unable to regulate their plasma cholesterol levels. As a consequence ApoE mice develop atherosclerotic lesions, a process which is accelerated with feeding of high fat diet. Further acceleration of lesion development can be achieved by ligating the carotid artery, resulting in advanced lesion formation within 4 weeks of surgery and high fat diet feeding. […]
Recorded % ID/G Carotid, mean values for a group of compounds are listed next.
measured.property: % ID/G Carotid, mean

>>> recorded_value("NC(=O)[C@H](CCCCNC(=O)CON=Cc1ccc([18F])cc1)NC(=O)CCOCCOCCOCCOCCOCCOCCOCCOCCOCCOCCOCCNC(=O)CCOCCOCCOCCOCCOCCOCCOCCOCCOCCOCCOCCNC(=O)CCN(C1(C(=O)NO)CCCC1)S(=O)(=O)c1ccc(Oc2ccc(F)cc2)cc1 [Compound 48B]")
"10.34 % ID/G"
>>> recorded_value("O=C(CCN(C1(C(=O)NO)CCCC1)S(=O)(=O)c1ccc(Oc2ccc(F)cc2)cc1)NCCc1ccc(O)c([123I])c1 [Compound 24A]")
"2.00 % ID/G"
>>> recorded_value("NC(=O)[C@H](Cc1ccc(O)c([123I])c1)NC(=O)CCOCCOCCOCCOCCOCCOCCOCCOCCOCCOCCOCCNC(=O)CCOCCOCCOCCOCCOCCOCCOCCOCCOCCOCCOCCNC(=O)CCN(C1(C(=O)NO)CCCC1)S(=O)(=O)c1ccc(Oc2ccc(F)cc2)cc1 [Compound 32A]")
"10.85 % ID/G"
>>> recorded_value("NC(=O)[C@H](CCCCNC(=O)CON=Cc1ccc([18F])cc1)NC(=O)CCN(C1(C(=O)NO)CCCC1)S(=O)(=O)c1ccc(Oc2ccc(F)cc2)cc1 [Compound 46B]")
"0.44 % ID/G"

* * *

tested on: Lewis lung carcinoma (LLC) tumour; assay: Biodistribution in LLC tumour model in vivo; set-up: species or system C57BL/6 mice; settings: 120 min post injection
measured.property: % ID/g Tumour, mean (% ID/g)

>>> recorded_value("NC(=O)[C@H](CCCCNC(=O)CON=Cc1ccc([18F])cc1)NC(=O)CCN(C1(C(=O)NO)CCCC1)S(=O)(=O)c1ccc(Oc2ccc(F)cc2)cc1 [Compound 46B]")
0.31
>>> recorded_value("NC(=O)[C@H](Cc1ccc(O)c([123I])c1)NC(=O)CCOCCOCCOCCOCCOCCOCCOCCOCCOCCOCCOCCNC(=O)CCN(C1(C(=O)NO)CCCC1)S(=O)(=O)c1ccc(Oc2ccc(F)cc2)cc1 [Compound 44A]")
0.53
>>> recorded_value("NC(=O)[C@H](CCCCNC(=O)CON=Cc1ccc([18F])cc1)NC(=O)CCOCCOCCOCCOCCOCCOCCOCCOCCOCCOCCOCCNC(=O)CCOCCOCCOCCOCCOCCOCCOCCOCCOCCOCCOCCNC(=O)CCN(C1(C(=O)NO)CCCC1)S(=O)(=O)c1ccc(Oc2ccc(F)cc2)cc1 [Compound 48B]")
1.62
>>> recorded_value("NC(=O)[C@H](Cc1ccc(O)c([123I])c1)NC(=O)[C@H](CCC(=O)O)NC(=O)[C@H](CCC(=O)O)NC(=O)[C@H](CCC(=O)O)NC(=O)[C@H](CCC(=O)O)NC(=O)[C@H](CCC(=O)O)NC(=O)CCN(C1(C(=O)NO)CCCC1)S(=O)(=O)c1ccc(Oc2ccc(F)cc2)cc1 [Compound 21A]")
1.60

* * *

target: MMP-1 (Homo sapiens)
Sequence (P03956 100-469): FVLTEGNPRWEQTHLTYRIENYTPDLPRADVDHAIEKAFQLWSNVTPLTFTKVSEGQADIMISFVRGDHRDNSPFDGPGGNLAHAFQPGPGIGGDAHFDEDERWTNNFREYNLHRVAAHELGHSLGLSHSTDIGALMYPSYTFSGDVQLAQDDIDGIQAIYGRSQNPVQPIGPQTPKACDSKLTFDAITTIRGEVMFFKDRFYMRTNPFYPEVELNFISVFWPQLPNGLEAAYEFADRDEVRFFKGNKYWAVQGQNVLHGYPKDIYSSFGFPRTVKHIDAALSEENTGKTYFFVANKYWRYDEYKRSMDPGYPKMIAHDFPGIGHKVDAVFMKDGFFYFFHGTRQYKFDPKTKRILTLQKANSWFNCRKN
Numbered stars: 1 amine (or outer) side, 2 acyl side, 3 side chain; on linkers, the order of the positions; unused ones are H or OH. Square brackets hold non-standard residues; d marks the D form. Peptide text beside a SMILES is read from it. * marks the point of attachment. Tyr(3-I) = N[C@@H](Cc1ccc(O)c(I)c1)C(=O)O; X2 = O=C(NO)C1(N(CCC(=O)[*:2])[*:1])CCCC1; X1 = O=S(=O)(c1ccc(Oc2ccc(F)cc2)cc1)*
Listed next: entries and their corresponding Ki.
measured.property: Ki

>>> recorded_value("NC(=O)[C@H](CCCCNC(=O)CON=Cc1ccc(F)cc1)NC(=O)CCOCCOCCOCCOCCOCCOCCOCCOCCOCCOCCOCCNC(=O)CCOCCOCCOCCOCCOCCOCCOCCOCCOCCOCCOCCNC(=O)CCN(C1(C(=O)NO)CCCC1)S(=O)(=O)c1ccc(Oc2ccc(F)cc2)cc1")
"0.0333 µM"
>>> recorded_value("NC(=O)[C@H](Cc1ccc(O)c(I)c1)NC(=O)[C@H](CCC(=O)O)NC(=O)[C@H](CCC(=O)O)NC(=O)[C@H](CCC(=O)O)NC(=O)[C@H](CCC(=O)O)NC(=O)[C@H](CCC(=O)O)NC(=O)CCN(C1(C(=O)NO)CCCC1)S(=O)(=O)c1ccc(Oc2ccc(F)cc2)cc1 [Compound 21] (X1-[X2]EEEEE[Tyr(3-I)]-NH2)")
"0.195 µM"
>>> recorded_value("NC(=O)[C@H](CCCCNC(=O)CON=Cc1ccc(F)cc1)NC(=O)CCN(C1(C(=O)NO)CCCC1)S(=O)(=O)c1ccc(Oc2ccc(F)cc2)cc1")
"0.172 µM"
>>> recorded_value("O=C(CCN(C1(C(=O)NO)CCCC1)S(=O)(=O)c1ccc(Oc2ccc(F)cc2)cc1)NCCc1ccc(O)c(I)c1")
"4.95 µM"

* * *

system: ApoE −/− mice, carotid artery; test: Biodistribution in ApoE ligation model of atherosclerosis (ligated and sham); type: in vivo; conditions: ApoE Ligated, 60 min post injection
measured.property: Carotid/Heart, mean

>>> recorded_value("NC(=O)[C@H](CCCCNC(=O)CON=Cc1ccc([18F])cc1)NC(=O)CCOCCOCCOCCOCCOCCOCCOCCOCCOCCOCCOCCNC(=O)CCOCCOCCOCCOCCOCCOCCOCCOCCOCCOCCOCCNC(=O)CCN(C1(C(=O)NO)CCCC1)S(=O)(=O)c1ccc(Oc2ccc(F)cc2)cc1 [Compound 48B]")
2.71
>>> recorded_value("NC(=O)[C@H](Cc1ccc(O)c([123I])c1)NC(=O)CCOCCOCCOCCOCCOCCOCCOCCOCCOCCOCCOCCNC(=O)CCOCCOCCOCCOCCOCCOCCOCCOCCOCCOCCOCCNC(=O)CCN(C1(C(=O)NO)CCCC1)S(=O)(=O)c1ccc(Oc2ccc(F)cc2)cc1 [Compound 32A]")
3.94
>>> recorded_value("NC(=O)[C@H](CCCCNC(=O)CON=Cc1ccc([18F])cc1)NC(=O)CCN(C1(C(=O)NO)CCCC1)S(=O)(=O)c1ccc(Oc2ccc(F)cc2)cc1 [Compound 46B]")
1.11
>>> recorded_value("O=C(CCN(C1(C(=O)NO)CCCC1)S(=O)(=O)c1ccc(Oc2ccc(F)cc2)cc1)NCCc1ccc(O)c([123I])c1 [Compound 24A]")
1.03

* * *

% ID Urinary (urinary excretion), mean for assorted compounds
Test system: Lewis lung carcinoma (LLC) tumour
Assay: Biodistribution in LLC tumour model in vivo
Design: species or system C57BL/6 mice
Settings: 5 min post injection
Description: 1×10^6 Lewis lung carcinoma (LLC) cells are injected subcutaneously into right inner thigh of C57BL/6 mice. Tumours were allowed to grow for 15 days prior to biodistribution being carried out. Biodistribution studies were performed in the LLC tumour model. Biodistribution was performed in the LLC tumour model of Example 23 with Compounds 46B and 48B.
measured.property: % ID Urinary (urinary excretion), mean (% ID)

>>> recorded_value("NC(=O)[C@H](Cc1ccc(O)c([123I])c1)NC(=O)[C@H](CCC(=O)O)NC(=O)[C@H](CCC(=O)O)NC(=O)[C@H](CCC(=O)O)NC(=O)[C@H](CCC(=O)O)NC(=O)[C@H](CCC(=O)O)NC(=O)CCN(C1(C(=O)NO)CCCC1)S(=O)(=O)c1ccc(Oc2ccc(F)cc2)cc1 [Compound 21A]")
5.62
>>> recorded_value("O=C(CCN(C1(C(=O)NO)CCCC1)S(=O)(=O)c1ccc(Oc2ccc(F)cc2)cc1)NCCc1ccc(O)c([123I])c1 [Compound 24A]")
7.17
>>> recorded_value("NC(=O)[C@H](CCCCNC(=O)CON=Cc1ccc([18F])cc1)NC(=O)CCOCCOCCOCCOCCOCCOCCOCCOCCOCCOCCOCCNC(=O)CCOCCOCCOCCOCCOCCOCCOCCOCCOCCOCCOCCNC(=O)CCN(C1(C(=O)NO)CCCC1)S(=O)(=O)c1ccc(Oc2ccc(F)cc2)cc1 [Compound 48B]")
0.24
>>> recorded_value("NC(=O)[C@H](Cc1ccc(O)c([123I])c1)NC(=O)CCOCCOCCOCCOCCOCCOCCOCCOCCOCCOCCOCCNC(=O)CCN(C1(C(=O)NO)CCCC1)S(=O)(=O)c1ccc(Oc2ccc(F)cc2)cc1 [Compound 44A]")
3.94
>>> recorded_value("NC(=O)[C@H](CCCCNC(=O)CON=Cc1ccc([18F])cc1)NC(=O)CCN(C1(C(=O)NO)CCCC1)S(=O)(=O)c1ccc(Oc2ccc(F)cc2)cc1 [Compound 46B]")
6.60
>>> recorded_value("NC(=O)[C@H](Cc1ccc(O)c([123I])c1)NC(=O)CCOCCOCCOCCOCCOCCOCCOCCOCCOCCOCCOCCNC(=O)CCOCCOCCOCCOCCOCCOCCOCCOCCOCCOCCOCCNC(=O)CCN(C1(C(=O)NO)CCCC1)S(=O)(=O)c1ccc(Oc2ccc(F)cc2)cc1 [Compound 32A]")
9.82
>>> recorded_value("NCCCC[C@H](NC(=O)CCN(C1(C(=O)NO)CCCC1)S(=O)(=O)c1ccc(Oc2ccc(F)cc2)cc1)C(=O)N[C@@H](CCCCN)C(=O)N[C@@H](CCCCN)C(=O)N[C@@H](CCCCN)C(=O)N[C@@H](CCCCN)C(=O)NCCOCCOCCOCCNC(=O)COCC(=O)N[C@@H](Cc1ccc(O)c([123I])c1)C(N)=O [Compound 42A]")
6.89
>>> recorded_value("NC(=O)[C@H](Cc1ccc(O)c([123I])c1)NC(=O)COCC(=O)NCCOCCOCCOCCNC(=O)[C@H](CCC(=O)O)NC(=O)[C@H](CCC(=O)O)NC(=O)[C@H](CCC(=O)O)NC(=O)[C@H](CCC(=O)O)NC(=O)[C@H](CCC(=O)O)NC(=O)CCN(C1(C(=O)NO)CCCC1)S(=O)(=O)c1ccc(Oc2ccc(F)cc2)cc1 [Compound 38A]")
6.37
